# TARGET_SYSTEM: T1, human W3785-hProl.ECD.His (Human-TNFR2-His) protein (human, UniProt P20333 23-257)
# T1 construct: extracellular domain; not shown: His tag
# T1 sequence (looked up): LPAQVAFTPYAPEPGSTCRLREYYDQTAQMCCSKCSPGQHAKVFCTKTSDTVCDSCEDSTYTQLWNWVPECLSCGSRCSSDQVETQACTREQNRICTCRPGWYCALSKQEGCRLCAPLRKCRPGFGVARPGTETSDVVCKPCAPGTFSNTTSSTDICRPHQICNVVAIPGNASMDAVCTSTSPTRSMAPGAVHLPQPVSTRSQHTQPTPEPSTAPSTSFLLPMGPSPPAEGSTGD
# PROTOCOL_NOTES: BLI (Octet Red96e), antibody on AHC sensor, Human-TNFR2-His in solution, multiple concentrations

BINDER: Antibody 13 (antibody, V domains shown, detected with anti-human IgG and captured on AHC sensors) VH: QVQLVQSGAEVKKPGASVKVSCKASGYTFTDYIIHWVRQAPGQGLEWMGWIDPDYGNTDYADKFKKRVTMTADTSISTAFMELSRLRSDDTAVYYCARDDGSPLVMDAWGQGTLVTVSS VL: DIQMTQSPSSLSASVGDRVTITCNGAQNIDNYLAWFQQKPGKAPKLLIYSTYSLQTGVPSRFSGSRSGTDFTLTISSLQPEDFATYFCFQYNNGYMFGGGTKLELK
koff (s⁻¹): 0.000134
--
BINDER: Antibody 10-xIgG1K (antibody, V domains shown, Rat-human chimeric antibody, human IgG1 kappa) VH: EVQLVETGGGLVQPGKSLKLTCATSGFTFSNAWMGWVRQSPEKQLEWVAQIKDKSNNYPTYYAESVKGRFTISRDDSESSVYLQMNSLKEEDTAIYYCTGYGDFFDYWGQGVVVTVSS VL: DIQMTQSPASLSASLGETVTIECRASEDIYNGLAWYQQKPGNSPRLLIFNANSLHTGVPSRFSGSGSGTQYSLKINSLQSEDVASYFCQQYYDHPLTFGSGIKLEIKR
koff (s⁻¹): 8.1e-05
--
BINDER: Antibody 14 (antibody, V domains shown, detected with anti-human IgG and captured on AHC sensors) VH: QVQLVQSGAEVKKPGASVKVSCKASGYTFTDYIIHWVRQAPGQGLEWMGWIDPDYGNTDYADKFKKRVTMTADTSISTAFMELSRLRSDDTAVYYCARDDASPLVMDAWGQGTLVTVSS VL: DIQMTQSPSSLSASVGDRVTITCNGSQNIDNYLAWFQQKPGKAPKLLIYSTYSLQTGVPSRFSGSRSGTDFTLTISSLQPEDFATYFCFQYNNGYMFGGGTKLELK
koff (s⁻¹): 0.00282
--
BINDER: Antibody 22 (antibody, V domains shown, detected with anti-human IgG and captured on AHC sensors) VH: EVQLVESGGGLVKPGGSLRLSCAASGFTFSNAWMGWVRQAPEKGLEWVGQIKDKSNNYPTYYAESVKGRFTISRDDSKNTLYLQMNSLKTEDTAVYYCTTYGDFFDYWGQGTLVTVSS VL: DIQMTQSPSSLSASVGDRVTITCRASEDIYQGLAWYQQKPGKVPKLLLYNANSLHTGVPSRFSGSGSGTDYTLTISSLQPEDFATYFCQQYYDHPLTFGQGTKLEIK
koff (s⁻¹): 0.000165
